- procedure_details: soluble on expression in E. coli; label from the status in PepcDB or PDB records

>  <input_sequence>
MSLDWTCKHHADLTLKELYALLQLRTEVFVVEQKCPYQEVDGLDLVGDTHHLMAWRDGQLLAYLRLLDPVRHEGQVVIGRVVSSSAARGQGLGHQLMERALQAAERLWLDTPVYLSAQAHLQAYYGRYGFVAVTEVYLEDDIPHIGMRRA

>  <soluble on expression in E. coli>
soluble

$$$$
>  <input_sequence>
MTASFPTRVYLLRHAKAAWAAPGERDFDRGLNEAGFAEAEIIADLAADRRYRPDLILSSTAARCRQTTQAWQRAFNEGIDIVYIDEMYNARSETYLSLIAAQTEVQSVMLVGHNPTMEATLEAMIGEDLLHAALPSGFPTSGLAVLDQDDSAASGKNRWRLIDFLAPGK

>  <soluble on expression in E. coli>
soluble

$$$$
